Where these numbers come from: patent US7186862B2

protocol-details: logP determination by HPLC on reversed-phase column (EEC Directive 79/831)
Assay type: physicochemical
conditions: reversed-phase C18, 43° C., 0.1% aqueous phosphoric acid/acetonitrile gradient
property-label: logP (pH 2.3)

O=C(Nc1ccccc1-c1ccc(OC(F)(F)F)c(F)c1)c1ccccc1C(F)(F)F = 4.08
O=C(Nc1ccccc1-c1cccc(Cl)c1)c1ccccc1I = 3.86
O=C(Nc1ccccc1-c1ccc(F)cc1)c1ccccc1Br = 3.42
O=C(Nc1ccccc1-c1ccc(Cl)cc1F)c1ccccc1C(F)(F)F = 3.68
Cc1ccccc1C(=O)Nc1ccccc1-c1ccc(Br)cc1 = 3.86
O=C(Nc1ccccc1-c1ccc(Cl)c(C(F)(F)F)c1)c1ccccc1C(F)(F)F = 4.18
O=C(Nc1ccccc1-c1ccc(C(F)(F)F)cc1)c1ccccc1C(F)(F)F = 4.05
Cc1ccccc1C(=O)Nc1ccccc1-c1ccc(C(F)(F)F)cc1 = 3.86
Cc1ccc(-c2ccccc2NC(=O)c2ccccc2C(F)(F)F)cc1C(F)(F)F = 4.18
O=C(Nc1ccccc1-c1ccc(OC(F)(F)F)cc1)c1ccccc1I = 4.21
O=C(Nc1ccccc1-c1ccc(Br)cc1)c1ccccc1I = 4.00
O=C(Nc1ccccc1-c1ccc(Cl)cc1)c1ccccc1Cl = 3.64
O=C(Nc1ccccc1-c1ccc(OC(F)(F)F)cc1)c1ccccc1Br = 4.08
CSc1ccc(-c2ccccc2NC(=O)c2ccccc2C)cc1 = 3.72
O=C(Nc1ccccc1-c1ccc(Cl)cc1)c1ccccc1Br = 3.66
O=C(Nc1c(F)cccc1-c1ccc(Cl)c(Cl)c1)c1ccccc1C(F)(F)F = 3.81
CSc1ccc(-c2ccccc2NC(=O)c2ccccc2Br)cc1 = 3.78
O=C(Nc1ccccc1-c1ccc(Cl)cc1)c1ccccc1I = 3.74
O=C(Nc1ccccc1-c1ccc(OC(F)(F)F)c(C(F)(F)F)c1)c1ccccc1C(F)(F)F = 4.41
O=C(Nc1ccccc1-c1ccc(Br)cc1)c1ccccc1Br = 3.91
O=C(Nc1ccccc1-c1ccc(F)cc1)c1ccccc1Cl = 3.40
Cc1ccccc1C(=O)Nc1ccccc1-c1cccc(Cl)c1 = 3.72
Cc1ccccc1C(=O)Nc1ccccc1-c1ccc(OC(F)(F)F)cc1 = 4.03
CSc1ccc(-c2ccccc2NC(=O)c2ccccc2Cl)cc1 = 3.75
O=C(Nc1ccccc1-c1ccc(Cl)c(Cl)c1)c1ccccc1I = 4.06
CSc1ccc(-c2ccccc2NC(=O)c2ccccc2C(F)(F)F)cc1 = 3.89
O=C(Nc1ccccc1-c1ccc(OC(F)(F)F)cc1)c1ccccc1Cl = 4.08
O=C(Nc1ccccc1-c1ccc(C(F)(F)F)cc1)c1ccccc1Br = 3.94
O=C(Nc1ccccc1-c1ccc(OC(F)(F)F)cc1)c1ccccc1C(F)(F)F = 4.20
CSc1ccc(-c2ccccc2NC(=O)c2ccccc2I)cc1 = 3.86
O=C(Nc1ccccc1-c1ccc(F)cc1)c1ccccc1I = 3.55

* * *

protocol-details: logP determination by HPLC on reversed-phase column (EEC Directive 79/831)
Format: physicochemical
conditions: reversed-phase HPLC column (C18), pH 2.3, reversed-phase C18, 43° C., 0.1% aqueous phosphoric acid/acetonitrile gradient
property-label: chromatographic logP

O=C(Nc1ccccc1-c1ccc(F)c(Cl)c1)c1ccccc1C(F)(F)F [Compound 35] = 3.81
O=C(Nc1ccccc1-c1ccc(F)c(F)c1)c1ccccc1C(F)(F)F [Compound 33] = 3.55
Cc1cc(-c2ccccc2NC(=O)c2ccccc2C(F)(F)F)ccc1Cl [Compound 42] = 4.18
Cc1cc(Cl)ccc1-c1ccccc1NC(=O)c1ccccc1C(F)(F)F [Compound 3] = 4.14
O=C(Nc1ccccc1-c1ccc(F)c(C(F)(F)F)c1)c1ccccc1C(F)(F)F [Compound 41] = 3.9
O=C(Nc1ccccc1-c1cccc(Cl)c1)c1ccccc1C(F)(F)F [Compound 7] = 3.86
O=C(Nc1ccccc1-c1ccc(Cl)c(F)c1)c1ccccc1C(F)(F)F [Compound 34] = 3.76
O=C(Nc1ccccc1-c1cccc(Cl)c1)c1ccccc1Br [Compound 18] = 3.78
O=C(Nc1ccccc1-c1ccc(Cl)cc1Cl)c1ccccc1C(F)(F)F [Compound 2] = 4
O=C(Nc1ccccc1-c1cccc(Cl)c1)c1ccccc1Cl [Compound 12] = 3.75
O=C(Nc1ccccc1Br)c1ccccc1C(F)(F)F [IV-1] = 2.99
O=C(Nc1ccccc1-c1ccc(Cl)cc1)c1ccccc1C(F)(F)F [Compound 1] = 3.73
O=C(Nc1ccccc1-c1ccc(Br)cc1)c1ccccc1Cl [Compound 10] = 3.89
O=C(Nc1ccccc1-c1ccc(Br)cc1)c1ccccc1C(F)(F)F [Compound 5] = 4.03
O=C(Nc1ccccc1-c1ccc(Cl)c(Cl)c1)c1ccccc1C(F)(F)F [Compound 4] = 4.13
